Attribute: molar heat capacity at constant pressure
- TEST_SUMMARY: molar heat capacity at constant pressure
- EXPERIMENTAL_CONTEXT: 318.2 K; 101.33 kPa; Liquid; Small sample (50 mg) DSC
± gives the expanded uncertainty stated by the source.
Answer format: value, then unit.

> print(dat)
                                   compound           data.value
1  CCn1cc[n+](C)c1.COCCOCCOS(=O)(=O)[O-] [1-ethyl-3-methylimidazolium 2-(2-methoxyethoxy) ethylsulfate]  531.04 ± 70 J/K/mol
2  CCn1cc[n+](C)c1.F[B-](F)(F)F [1-ethyl-3-methylimidazolium tetrafluoroborate]  312.79 ± 41 J/K/mol
3  CCOS(=O)(=O)[O-].CCn1cc[n+](C)c1 [1-ethyl-3-methylimidazolium ethyl sulfate]  437.14 ± 57 J/K/mol

Return molar heat capacity at constant pressure for the following compound: CCn1cc[n+](C)c1.O=S(=O)([O-])C(F)(F)F [1-ethyl-3-methylimidazolium trifluoromethanesulfonate]
385.41 ± 50 J/K/mol

Return molar heat capacity at constant pressure for the following compound: CCn1cc[n+](C)c1.N#CN=C=[N-] [1-ethyl-3-methylimidazolium dicyanamide]
335.1 ± 44 J/K/mol

* * *

Attribute: electrical conductivity
- EXPERIMENTAL_CONTEXT: 313.2 K; Liquid; Alternating current cell with electrodes
All answers are understood in S/m, so give the number only.

Below, 2 molecules whose answers are already recorded.
> print(dat)
                                   molecule  data.value
1  CCn1cc[n+](C)c1.COCCOCCOS(=O)(=O)[O-] [1-ethyl-3-methylimidazolium 2-(2-methoxyethoxy) ethylsulfate]       0.307
2  CCn1cc[n+](C)c1.F[B-](F)(F)F [1-ethyl-3-methylimidazolium tetrafluoroborate]        2.32

Return electrical conductivity for the following molecule: CCn1cc[n+](C)c1.O=S(=O)([O-])C(F)(F)F [1-ethyl-3-methylimidazolium trifluoromethanesulfonate]
1.52

Return electrical conductivity for the following molecule: CCOS(=O)(=O)[O-].CCn1cc[n+](C)c1 [1-ethyl-3-methylimidazolium ethyl sulfate]
0.722

Return electrical conductivity for the following molecule: CCn1cc[n+](C)c1.N#CN=C=[N-] [1-ethyl-3-methylimidazolium dicyanamide]
3.29

* * *

Attribute: molar heat capacity at constant pressure
- TEST_SUMMARY: molar heat capacity at constant pressure
- EXPERIMENTAL_CONTEXT: 348.2 K; 101.33 kPa; Liquid; Small sample (50 mg) DSC
All answers are understood in J/K/mol, so give the number only.

Below, 2 molecules whose answers are already recorded.
> print(dat)
                                   molecule  data.value
1  CCn1cc[n+](C)c1.O=S(=O)([O-])C(F)(F)F [1-ethyl-3-methylimidazolium trifluoromethanesulfonate]       397.9
2  CCn1cc[n+](C)c1.F[B-](F)(F)F [1-ethyl-3-methylimidazolium tetrafluoroborate]       321.3

Return molar heat capacity at constant pressure for the following molecule: CCOS(=O)(=O)[O-].CCn1cc[n+](C)c1 [1-ethyl-3-methylimidazolium ethyl sulfate]
456.51

Return molar heat capacity at constant pressure for the following molecule: CCn1cc[n+](C)c1.COCCOCCOS(=O)(=O)[O-] [1-ethyl-3-methylimidazolium 2-(2-methoxyethoxy) ethylsulfate]
540.66

Return molar heat capacity at constant pressure for the following molecule: CCn1cc[n+](C)c1.N#CN=C=[N-] [1-ethyl-3-methylimidazolium dicyanamide]
348.92

* * *

- TEST_SUMMARY: molar heat capacity at constant pressure
- EXPERIMENTAL_CONTEXT: 328.2 K; 101.33 kPa; Liquid; Small sample (50 mg) DSC
Is molar heat capacity at constant pressure at least 400 J/K/mol? Then 1. If not, -1.

> print(dat)
                                   molecule  class.name
1  CCn1cc[n+](C)c1.N#CN=C=[N-] [1-ethyl-3-methylimidazolium dicyanamide]          -1

Could you tell me if the measured molar heat capacity at constant pressure of CCOS(=O)(=O)[O-].CCn1cc[n+](C)c1 [1-ethyl-3-methylimidazolium ethyl sulfate] reaches 400 J/K/mol or more?
1

Could you tell me if the measured molar heat capacity at constant pressure of CCn1cc[n+](C)c1.COCCOCCOS(=O)(=O)[O-] [1-ethyl-3-methylimidazolium 2-(2-methoxyethoxy) ethylsulfate] reaches 400 J/K/mol or more?
1

Could you tell me if the measured molar heat capacity at constant pressure of CCn1cc[n+](C)c1.F[B-](F)(F)F [1-ethyl-3-methylimidazolium tetrafluoroborate] reaches 400 J/K/mol or more?
-1

* * *

- EXPERIMENTAL_CONTEXT: 293.2 K; Liquid; Alternating current cell with electrodes
Sorting guide: entries reporting electrical conductivity beneath 0.8 S/m go in the condition met pile, the rest go in the condition not met pile.

Study these solved cases before continuing.
> print(dat)
                                   compound         class.name
1  CCn1cc[n+](C)c1.O=S(=O)([O-])C(F)(F)F [1-ethyl-3-methylimidazolium trifluoromethanesulfonate]  condition not met
2  CCn1cc[n+](C)c1.F[B-](F)(F)F [1-ethyl-3-methylimidazolium tetrafluoroborate]  condition not met
3  CCn1cc[n+](C)c1.N#CN=C=[N-] [1-ethyl-3-methylimidazolium dicyanamide]  condition not met
4  CCOS(=O)(=O)[O-].CCn1cc[n+](C)c1 [1-ethyl-3-methylimidazolium ethyl sulfate]      condition met

Pending compound:
For CCn1cc[n+](C)c1.COCCOCCOS(=O)(=O)[O-] [1-ethyl-3-methylimidazolium 2-(2-methoxyethoxy) ethylsulfate] , is the recorded electrical conductivity below the cut-off of 0.8 S/m?
condition met

* * *

- EXPERIMENTAL_CONTEXT: 323.2 K; Liquid; Alternating current cell with electrodes
Sorting guide: entries reporting electrical conductivity beneath 2 S/m go in the fulfilled pile, the rest go in the not fulfilled pile.

For CCn1cc[n+](C)c1.COCCOCCOS(=O)(=O)[O-] [1-ethyl-3-methylimidazolium 2-(2-methoxyethoxy) ethylsulfate] , is the recorded electrical conductivity below the cut-off of 2 S/m?
fulfilled

* * *

- TEST_SUMMARY: molar heat capacity at constant pressure
- EXPERIMENTAL_CONTEXT: 308.2 K; 101.33 kPa; Liquid; Small sample (50 mg) DSC
Is molar heat capacity at constant pressure at least 400 J/K/mol? Then 1.0. If not, 0.0.

> print(dat)
                                   molecule  class.name
1  CCn1cc[n+](C)c1.COCCOCCOS(=O)(=O)[O-] [1-ethyl-3-methylimidazolium 2-(2-methoxyethoxy) ethylsulfate]         1.0
2  CCn1cc[n+](C)c1.F[B-](F)(F)F [1-ethyl-3-methylimidazolium tetrafluoroborate]         0.0
3  CCn1cc[n+](C)c1.O=S(=O)([O-])C(F)(F)F [1-ethyl-3-methylimidazolium trifluoromethanesulfonate]         0.0
4  CCn1cc[n+](C)c1.N#CN=C=[N-] [1-ethyl-3-methylimidazolium dicyanamide]         0.0

Could you tell me if the measured molar heat capacity at constant pressure of CCOS(=O)(=O)[O-].CCn1cc[n+](C)c1 [1-ethyl-3-methylimidazolium ethyl sulfate] reaches 400 J/K/mol or more?
1.0

* * *

- EXPERIMENTAL_CONTEXT: 323.2 K; Liquid; Alternating current cell with electrodes
MEASUREMENT_NAME: electrical conductivity (S/m)
All answers are understood in S/m, so give the number only.

> print(dat)
                                   compound         measurement.name  data.value
1  CCn1cc[n+](C)c1.F[B-](F)(F)F [1-ethyl-3-methylimidazolium tetrafluoroborate]  electrical conductivity        2.91
2  CCn1cc[n+](C)c1.N#CN=C=[N-] [1-ethyl-3-methylimidazolium dicyanamide]  electrical conductivity         4.1
3  CCn1cc[n+](C)c1.O=S(=O)([O-])C(F)(F)F [1-ethyl-3-methylimidazolium trifluoromethanesulfonate]  electrical conductivity        1.94

API: the following record is the query input.
Return electrical conductivity for the following compound: CCOS(=O)(=O)[O-].CCn1cc[n+](C)c1 [1-ethyl-3-methylimidazolium ethyl sulfate]
1
